ASSAY EXPLANATION: Encapsulation of mRNA nanoparticles with lipid amines using Ribogreen assay
Assay type: physicochemical
MEASUREMENT SETUP: CFTR mRNA nanoparticle with lipid amine
Structures can show the parent of a compound that is named as a salt.
READOUT TYPE: % Encapsulation (Ribogreen)

Look over these answered cases.
COMPOUND	% Encapsulation (Ribogreen)
CC(C)CCC[C@@H](C)[C@H]1CC[C@H]2[C@@H]3CC=C4C[C@@H](OC(=O)[C@H](C)N(CCCN)CCCCNCCCN)CC[C@]4(C)[C@H]3CC[C@]12C [SA73, trihydrochloride]	100%
CC(C)CCC[C@@H](C)[C@H]1CC[C@H]2[C@@H]3CC=C4C[C@@H](OC(=O)N(CCCCNCC(C)CN)CC(C)CN)CC[C@]4(C)[C@H]3CC[C@]12C (stereo partly shown) [SA75, trihydrochloride]	100%
CC[C@H](CC[C@@H](C)[C@H]1CC[C@H]2[C@@H]3CC=C4C[C@@H](OC(=O)N(CCCN)CCCCN)CC[C@]4(C)[C@H]3CC[C@]12C)C(C)C [SA120, dihydrochloride]	97.5%
CC(C)CCC[C@@H](C)[C@H]1CC[C@H]2[C@@H]3CC=C4C[C@@H](OC(=O)CCCC(=O)N(CCCCCCCC(C)(C)N)CCC(C)(C)N)CC[C@]4(C)[C@H]3CC[C@]12C.Cl.Cl	98.9%
CC(C)CCC[C@@H](C)[C@H]1CC[C@H]2[C@@H]3CC=C4C[C@@H](OC(=O)CN(CCCN)CCCCNCCCN)CC[C@]4(C)[C@H]3CC[C@]12C (stereo in doubt)	99.6%
CC[C@H](CC[C@@H](C)[C@H]1CC[C@H]2[C@@H]3CC=C4C[C@@H](OC(=O)[C@H](C)N(CCCN)CCCCNCCCN)CC[C@]4(C)[C@H]3CC[C@]12C)C(C)C	97.9%

Ask: Find the measured % Encapsulation (Ribogreen) of CC(C)CCC[C@@H](C)[C@H]1CC[C@H]2[C@@H]3CC=C4C[C@@H](OC(=O)CCCC(=O)N(CCCN)CCCCNCCCN)CC[C@]4(C)[C@H]3CC[C@]12C.Cl.Cl.Cl and report it.
Result: 99.6%

Ask: Note % Encapsulation (Ribogreen) for the compound shown: CC(C)CCC[C@@H](C)[C@H]1CC[C@H]2[C@@H]3CC=C4C[C@@H](OC(=O)N(CCCCNCC(O)CN)CC(O)CN)CC[C@]4(C)[C@H]3CC[C@]12C (stereo partly shown) [SA88, trihydrochloride]
Result: 99.1%

Ask: Return the recorded % Encapsulation (Ribogreen) value; entry: CC[C@H](CC[C@@H](C)[C@H]1CC[C@H]2[C@@H]3CC=C4C[C@@H](OC(=O)CCCC(=O)N(CCCN)CCCCCCCCN)CC[C@]4(C)[C@H]3CC[C@]12C)C(C)C.Cl.Cl
Result: 98.0%

Ask: Find the measured % Encapsulation (Ribogreen) of CC(C)CCC[C@@H](C)[C@H]1CC[C@H]2[C@@H]3CC=C4C[C@@H](OC(=O)CCCC(=O)N(CCCCNCCC(C)N)CCC(C)N)CC[C@]4(C)[C@H]3CC[C@]12C.Cl.Cl.Cl (stereo partly shown) and report it.
Result: 99.0%

All figures here come from patent US20260109732A1.
